- Test details: Particle size distribution test (laser particle size analyzer, wet process)
- Type: physicochemical
- Condition context: dispersion medium Isopar G
Assay metric: MV, average particle size calculated by volume (μm)

The following compounds have reported results that may help.
* CC(C)Oc1ccc(-c2nc(-c3cccc4c3CC[C@@H]4NCCO)no2)cc1C#N [Form CS1, ozanimod] | 22.40
* CC(C)Oc1ccc(-c2nc(-c3cccc4c3CC[C@@H]4NCCO)no2)cc1C#N [Form CS3, ozanimod] | 66.62
* CC(C)Oc1ccc(-c2nc(-c3cccc4c3CC[C@@H]4NCCO)no2)cc1C#N [Form CS5, ozanimod] | 68.84

1: CC(C)Oc1ccc(-c2nc(-c3cccc4c3CC[C@@H]4NCCO)no2)cc1C#N [Form CS6, ozanimod]
2: CC(C)Oc1ccc(-c2nc(-c3cccc4c3CC[C@@H]4NCCO)no2)cc1C#N [Form CS2, ozanimod]
Request: Would you mind telling me which has the lower recorded MV, average particle size calculated by volume between 1 and 2 ? When you have decided, please share the label of that item.
Result: 2

* * *

- Test details: Stability assessment in constant temperature and humidity chambers (HPLC purity, XRPD crystalline form)
- Assay type: physicochemical
- Condition context: 25° C./60% RH, 4 weeks, XRPD
Counter-ions that a name gives are not always drawn.
Assay metric: Change of the crystalline form

• CC(C)Oc1ccc(-c2nc(-c3cccc4c3CC[C@@H]4NCCO)no2)cc1C#N [Form CS1, ozanimod] = No change
• CC(C)Oc1ccc(-c2nc(-c3cccc4c3CC[C@@H]4NCCO)no2)cc1C#N [Form CS6, ozanimod] = No change
• CC(C)Oc1ccc(-c2nc(-c3cccc4c3CC[C@@H]4NCCO)no2)cc1C#N [Form CS2, ozanimod] = No change
• CC(C)Oc1ccc(-c2nc(-c3cccc4c3CC[C@@H]4NCCO)no2)cc1C#N [Form CS1 of ozanimod hydrochloride, ozanimod hydrochloride] = No change

Would you kindly look at the next entry?
Request: Request the reported Change of the crystalline form associated with CC(C)Oc1ccc(-c2nc(-c3cccc4c3CC[C@@H]4NCCO)no2)cc1C#N [Form CS3, ozanimod]
Result: No change

* * *

- Test details: Solubility assessment of saturated solutions in SGF, FeSSIF and water, measured by HPLC
- Format: physicochemical
- Condition context: water, thermodynamic from solid, H2O, 24 h
Assay metric: solubility at 24 h (µg/mL)
Give the value in µg/mL but do not write µg/mL after it.

Request: What value of measured solubility at 24 h is listed for CC(C)Oc1ccc(-c2nc(-c3cccc4c3CC[C@@H]4NCCO)no2)cc1C#N [Form CS3, ozanimod] ?
Result: 350

* * *

- Test details: Stability assessment in constant temperature and humidity chambers (HPLC purity, XRPD crystalline form)
- Format: physicochemical
- Condition context: 25° C./60% RH, 2 weeks, HPLC
Assay metric: 2 week purity % (%)

* CC(C)Oc1ccc(-c2nc(-c3cccc4c3CC[C@@H]4NCCO)no2)cc1C#N [Form CS6, ozanimod] | 98.21
* CC(C)Oc1ccc(-c2nc(-c3cccc4c3CC[C@@H]4NCCO)no2)cc1C#N [Form CS1, ozanimod] | 99.18
* CC(C)Oc1ccc(-c2nc(-c3cccc4c3CC[C@@H]4NCCO)no2)cc1C#N [Form CS2, ozanimod] | 99.63
* CC(C)Oc1ccc(-c2nc(-c3cccc4c3CC[C@@H]4NCCO)no2)cc1C#N [Form CS3, ozanimod] | 99.30

* * *

- Test details: Stability assessment in constant temperature and humidity chambers (HPLC purity, XRPD crystalline form)
- Type: physicochemical
- Condition context: 40° C./75% RH, 2 weeks, HPLC
Assay metric: 2 week purity % (%)

• CC(C)Oc1ccc(-c2nc(-c3cccc4c3CC[C@@H]4NCCO)no2)cc1C#N [Form CS2, ozanimod] = 99.78
• CC(C)Oc1ccc(-c2nc(-c3cccc4c3CC[C@@H]4NCCO)no2)cc1C#N [Form CS3, ozanimod] = 99.28
• CC(C)Oc1ccc(-c2nc(-c3cccc4c3CC[C@@H]4NCCO)no2)cc1C#N [Form CS6, ozanimod] = 98.33
• CC(C)Oc1ccc(-c2nc(-c3cccc4c3CC[C@@H]4NCCO)no2)cc1C#N [Form CS1, ozanimod] = 99.17

* * *

- Test details: Solubility assessment of saturated solutions in SGF, FeSSIF and water, measured by HPLC
- Type: physicochemical
- Condition context: fed state simulated intestinal fluid (FeSSIF), pH 5, fessif, thermodynamic from solid, FeSSIF (pH=5.0), 24 h
Assay metric: solubility at 24 h (µg/mL)
// note: answer is a bare numeric in µg/mL

Request: Need solubility at 24 h of CC(C)Oc1ccc(-c2nc(-c3cccc4c3CC[C@@H]4NCCO)no2)cc1C#N [Form CS1, ozanimod] , thanks.
Result: 7700

* * *

- Test details: Stability assessment in constant temperature and humidity chambers (HPLC purity, XRPD crystalline form)
- Assay type: physicochemical
- Condition context: 40° C./75% RH, 1 week, HPLC
- Experimental: Three solid samples of Form CS1 were placed in constant temperature and humidity chambers at 25° C./60% RH, 40° C./75% RH and 60° C./75% RH for 4 weeks. XRPD was used to test the crystalline form at the end of week 4. HPLC was used to measure the chemical purity at the end of week 1, 2, and 4. […]
Assay metric: 1 week purity % (%)

• CC(C)Oc1ccc(-c2nc(-c3cccc4c3CC[C@@H]4NCCO)no2)cc1C#N [Form CS6, ozanimod] = 98.47
• CC(C)Oc1ccc(-c2nc(-c3cccc4c3CC[C@@H]4NCCO)no2)cc1C#N [Form CS1, ozanimod] = 99.16
• CC(C)Oc1ccc(-c2nc(-c3cccc4c3CC[C@@H]4NCCO)no2)cc1C#N [Form CS3, ozanimod] = 99.52
• CC(C)Oc1ccc(-c2nc(-c3cccc4c3CC[C@@H]4NCCO)no2)cc1C#N [Form CS2, ozanimod] = 99.84

* * *

- Test details: Hygroscopicity assessment by dynamic vapor sorption (DVS)
- Format: physicochemical
- Condition context: DVS, 25° C.
Assay metric: Weight gain under 80% RH (%)

Study these solved cases before continuing.
• CC(C)Oc1ccc(-c2nc(-c3cccc4c3CC[C@@H]4NCCO)no2)cc1C#N [Form CS5, ozanimod] = 0.23
• CC(C)Oc1ccc(-c2nc(-c3cccc4c3CC[C@@H]4NCCO)no2)cc1C#N [Form CS3, ozanimod] = 2.25

P: CC(C)Oc1ccc(-c2nc(-c3cccc4c3CC[C@@H]4NCCO)no2)cc1C#N [Form CS2, ozanimod]
Q: CC(C)Oc1ccc(-c2nc(-c3cccc4c3CC[C@@H]4NCCO)no2)cc1C#N [Form CS1, ozanimod]
R: CC(C)Oc1ccc(-c2nc(-c3cccc4c3CC[C@@H]4NCCO)no2)cc1C#N [Form CS6, ozanimod]
Request: Give the ascending ranking of the items by reported Weight gain under 80% RH. Answer format: the labels, ordered as requested.
Result: P, Q, R

* * *

- Test details: Particle size distribution test (laser particle size analyzer, wet process)
- Format: physicochemical
- Condition context: volume distribution, Isopar G
Assay metric: D90 (μm)

- CC(C)Oc1ccc(-c2nc(-c3cccc4c3CC[C@@H]4NCCO)no2)cc1C#N [Form CS5, ozanimod]: 173.3
- CC(C)Oc1ccc(-c2nc(-c3cccc4c3CC[C@@H]4NCCO)no2)cc1C#N [Form CS1, ozanimod]: 48.90
- CC(C)Oc1ccc(-c2nc(-c3cccc4c3CC[C@@H]4NCCO)no2)cc1C#N [Form CS3, ozanimod]: 130.8

a: CC(C)Oc1ccc(-c2nc(-c3cccc4c3CC[C@@H]4NCCO)no2)cc1C#N [Form CS6, ozanimod]
b: CC(C)Oc1ccc(-c2nc(-c3cccc4c3CC[C@@H]4NCCO)no2)cc1C#N [Form CS2, ozanimod]
Request: I'm curious whether a or b has the smaller D90 number. Which is it? Pick one and reply with its label.
Result: b

* * *

- Test details: Particle size distribution test (laser particle size analyzer, wet process)
- Type: physicochemical
- Condition context: volume distribution, Isopar G
Assay metric: D50 (median diameter) (μm)

Sample answers from the record:
- CC(C)Oc1ccc(-c2nc(-c3cccc4c3CC[C@@H]4NCCO)no2)cc1C#N [Form CS6, ozanimod]: 46.47
- CC(C)Oc1ccc(-c2nc(-c3cccc4c3CC[C@@H]4NCCO)no2)cc1C#N [Form CS2, ozanimod]: 14.20
- CC(C)Oc1ccc(-c2nc(-c3cccc4c3CC[C@@H]4NCCO)no2)cc1C#N [Form CS5, ozanimod]: 41.10

P: CC(C)Oc1ccc(-c2nc(-c3cccc4c3CC[C@@H]4NCCO)no2)cc1C#N [Form CS3, ozanimod]
Q: CC(C)Oc1ccc(-c2nc(-c3cccc4c3CC[C@@H]4NCCO)no2)cc1C#N [Form CS1, ozanimod]
Request: Between P and Q , which one has the lower reported D50 (median diameter) value? Label of pick, please.
Result: Q
